All figures here come from patent US12667118B2.

Tested on: dairy cattle
PROTOCOL TEXT: Tolerability limits: intake limits of minerals for dairy cattle
Type: in vivo
CONDITION SET: bovine, in vivo
# Intake for a Cow Consuming 20.14 kg DM/day listing for each entry below
VALUE TYPE: Intake for a Cow Consuming 20.14 kg DM/day (mg/day)

test_smiles=[Mo] system_under_test="dairy cattle" number=101
test_smiles=[B] system_under_test="dairy cattle" number=3021
test_smiles=[Mg+2] system_under_test="dairy cattle" number=120840
test_smiles=[Fe] system_under_test="dairy cattle" number=10070
test_smiles=[K+] system_under_test="dairy cattle" number=402800
test_smiles=[Al] system_under_test="dairy cattle" number=20140

###

Tested on: dairy cattle
PROTOCOL TEXT: Tolerability limits: intake limits of minerals for dairy cattle
Assay type: in vivo
CONDITION SET: dairy cattle, at the maximum allowable limit
VALUE TYPE: Intake for a Cow Consuming 20.14 kg DM/day (mg/day)

compound="S1SSSSSSS1 [Sulfur]" number=60420
compound="[Zn] [Zinc]" number=10070
compound="[Ca+2] [Calcium]" number=302100
compound="[Cr] [Chromium]" number=2014
compound="[Co] [Cobalt]" number=504
compound="[Se] [Selenium]" number=101
compound="[Mn+2] [Manganese]" number=40280
compound="[Pb] [Lead]" number=2014
compound="[Cd] [Cadmium]" number=201
